Source of measurements: patent US20240317736A1

Molecular target: UniProt Q12809
Sequence (Q12809 whole entry): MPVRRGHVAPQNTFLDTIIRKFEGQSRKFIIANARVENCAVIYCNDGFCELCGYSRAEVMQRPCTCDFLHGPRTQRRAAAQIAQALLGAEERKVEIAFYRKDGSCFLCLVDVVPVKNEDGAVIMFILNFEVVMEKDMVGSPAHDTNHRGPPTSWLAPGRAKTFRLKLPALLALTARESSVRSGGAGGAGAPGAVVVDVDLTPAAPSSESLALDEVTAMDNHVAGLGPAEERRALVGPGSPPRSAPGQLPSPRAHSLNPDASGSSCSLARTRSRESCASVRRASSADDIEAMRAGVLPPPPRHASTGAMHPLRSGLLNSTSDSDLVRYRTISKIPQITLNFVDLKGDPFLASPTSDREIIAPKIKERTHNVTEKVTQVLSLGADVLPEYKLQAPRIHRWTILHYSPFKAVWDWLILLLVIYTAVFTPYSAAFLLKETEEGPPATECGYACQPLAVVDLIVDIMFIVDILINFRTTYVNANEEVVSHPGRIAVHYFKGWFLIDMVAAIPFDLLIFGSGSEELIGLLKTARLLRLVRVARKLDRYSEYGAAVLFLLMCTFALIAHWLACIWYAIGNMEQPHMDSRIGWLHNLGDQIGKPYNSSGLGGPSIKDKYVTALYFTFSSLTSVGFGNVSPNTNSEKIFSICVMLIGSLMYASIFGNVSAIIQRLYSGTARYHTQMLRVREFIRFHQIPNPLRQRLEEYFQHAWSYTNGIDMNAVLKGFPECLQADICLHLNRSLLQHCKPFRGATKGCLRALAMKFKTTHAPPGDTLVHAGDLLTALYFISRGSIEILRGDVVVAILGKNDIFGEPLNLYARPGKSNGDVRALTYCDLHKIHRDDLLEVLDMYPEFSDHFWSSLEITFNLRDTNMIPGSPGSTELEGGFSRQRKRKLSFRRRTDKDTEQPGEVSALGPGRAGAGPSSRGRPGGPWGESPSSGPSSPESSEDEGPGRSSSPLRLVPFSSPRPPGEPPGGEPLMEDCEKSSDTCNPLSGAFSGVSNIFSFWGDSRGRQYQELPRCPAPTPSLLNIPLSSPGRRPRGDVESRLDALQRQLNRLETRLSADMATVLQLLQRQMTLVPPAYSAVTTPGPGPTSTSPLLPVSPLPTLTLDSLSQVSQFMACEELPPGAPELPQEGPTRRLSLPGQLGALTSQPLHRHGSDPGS
property-name: pIC50
Please note pIC50 is a logarithmic value: minus log10 of concentration in mol/L. Answer with that number alone.

Ask | Suppose we examine the compound "[2H]C([2H])([2H])N(c1nc(-c2ccc(F)cc2)c(C#N)s1)c1c(CC)nn2cc(F)c(N3CCN(CC(=O)N4CC(O)C4)CC3)cc12" ; what pIC50 value has been reported?
Reply | 4.64

---

Test: Pharmacokinetic test in rats
Type: in vivo
Details: male, SD, rat, plasma, IV 1 mg/kg
property-name: half-life (h)
// note: answer is a bare numeric in h

compound: [2H]C([2H])([2H])N(c1nc(-c2ccc(F)cc2)c(C#N)s1)c1c(C([2H])([2H])C([2H])([2H])[2H])nn2cc(F)c(N3CCN(CC(=O)N4CC(O)C4)CC3)cc12 [Compound 2]
property-name: half-life
reading: 2.4
--
compound: [2H]C([2H])([2H])C([2H])([2H])c1nn2cc(F)c(N3CCN(CC(=O)N4CC(O)C4)CC3)cc2c1N(C)c1nc(-c2ccc(F)cc2)c(C#N)s1 [Compound 1]
property-name: half-life
reading: 2.6
--
compound: [2H]c1c([2H])c(-c2nc(N(c3c(CC)nn4cc(F)c(N5CCN(CC(=O)N6CC(O)C6)CC5)cc34)C([2H])([2H])[2H])sc2C#N)c([2H])c([2H])c1F [Compound 10]
property-name: half-life
reading: 2.05

Next compound, half-life to be filled in.
Ask | Suppose we examine the compound [2H]c1c([2H])c(-c2nc(N(C)c3c(CC)nn4cc(F)c(N5CCN(CC(=O)N6CC(O)C6)CC5)cc34)sc2C#N)c([2H])c([2H])c1F [Compound 9] ; what half-life value has been reported?
Reply | 1.93

---

Test: Pharmacokinetic test in monkeys
Assay type: in vivo, Cynomolgus macaques
Conditions: male, cynomolgus monkey, plasma, PO 5 mg/kg
property-name: Tmax (h)
// note: answer is a bare numeric in h

Ask | Suppose we examine the compound "[2H]C([2H])([2H])N(c1nc(-c2ccc(F)cc2)c(C#N)s1)c1c(CC)nn2cc(F)c(N3CCN(CC(=O)N4CC(O)C4)CC3)cc12" ; what Tmax value has been reported?
Reply | 1.33

---

Test: Pharmacokinetic test in monkeys
Type: in vivo, Cynomolgus macaques
Settings: male, cynomolgus monkey, plasma, IV 1 mg/kg
Method: Test objective: the pharmacokinetic characteristics and bioavailability of test compounds in monkeys were evaluated. Test animals: twelve male Cynomolgus macaques, 2.4-5.9 kg, 3-5.5 years old, purchased from Suzhou Xishan Zhongke Laboratory Animal Co., Ltd., with the production license number of SCXK (SU) 2018-0001. Vehicle for intravenous administration: 5% DMSO+5% Solutol+90% Saline; • vehicle for intragastric administration: 1% DMSO+1% Solutol+98% (0.5% CMC-Na) […]
property-name: AUC (µg·h/mL)
// note: answer is a bare numeric in µg·h/mL

Ask | Suppose we examine the compound "[2H]C([2H])([2H])N(c1nc(-c2ccc(F)cc2)c(C#N)s1)c1c(CC)nn2cc(F)c(N3CCN(CC(=O)N4CC(O)C4)CC3)cc12" ; what AUC value has been reported?
Reply | 2.01

---

Experiment: Dynamic solubility test in water and biological vehicles
Assay type: physicochemical
Settings: water, thermodynamic from solid; vehicle H2O, 24 h, 37° C.; read-out: S: Solubility
property-name: solubility at 24 h

Ask | Suppose we examine the molecule [2H]C([2H])([2H])N(c1nc(-c2ccc(F)cc2)c(C#N)s1)c1c(CC)nn2cc(F)c(N3CCN(CC(=O)N4CC(O)C4)CC3)cc12 [Compound A Crystal form I] ; what solubility at 24 h value has been reported?
Reply | > 5300 µg/mL
